Hey, just so you know, these numbers are from the RNAGym collection of RNA variant scans (doi:10.1021/acssynbio.7b00057).

B1: Pistol ribozyme (parent)
chain: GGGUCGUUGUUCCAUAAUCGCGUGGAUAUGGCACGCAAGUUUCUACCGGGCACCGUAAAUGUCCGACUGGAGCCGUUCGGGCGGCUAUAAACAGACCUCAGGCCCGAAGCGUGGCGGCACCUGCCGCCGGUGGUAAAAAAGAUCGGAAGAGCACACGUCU

Variants of: B1
Assay: aptazyme ON/OFF ratio, guanine; higher = stronger switching; co-transcriptional cleavage with and without guanine
Readout Type: aptazyme ON/OFF ratio

{"Variant Identifier": "U8G U10A U11C C13U", "Result": 1.03}

Batch request: aptazyme ON/OFF ratio per item, same order as input.
1. U7C U8A G9A U10G U11A C12U
2. U7C G9U U11C C13A
3. U7C G9C U10A U11G C12G
4. U7A U8C G9C U10G U11C C12U C13G
5. U7A U8A U10A U11C C12U C13U

1: 1.01; 2: 1.05; 3: 1.29; 4: 1.16; 5: 1.04

May I ask what aptazyme ON/OFF ratio has been recorded for U7A U8A G9U U10C U11G C12A ? 1.04
